Sorting guide: entries reporting fraction unbound, rat plasma beneath 0.04 go in the fulfilled pile, the rest go in the not fulfilled pile.

Consider the worked cases shown below.
compound=CC1(C)Cc2cc(NC(=O)c3cnn4cccnc34)c(OCC3CC3)nc2O1 category_label=fulfilled
compound=Nc1ncnc2c1c(-c1cnc3[nH]ccc3c1)nn2C1CCCC1 category_label="not fulfilled"
compound=COc1ccc(Cl)cc1C(=O)NCCc1ccc(S(=O)(=O)NC(=O)NC2CCCCC2)cc1 category_label=fulfilled
compound=COc1nn(C)cc1C(=O)Nc1cccc(-c2cnc3n2CCC3)c1 category_label="not fulfilled"
compound=CC(=O)Nc1ncc(CN2CCCC[C@@H]2C)s1 category_label="not fulfilled"

Below 0.04 on fraction unbound, rat plasma? Entry O=C1CN(c2ccc(Nc3nccc(C(F)(F)F)n3)cn2)CCN1 not fulfilled

Below 0.04 on fraction unbound, rat plasma? Entry Cn1cc(Nc2nc(N)nc(-c3cccc(-n4ccc5cc(C6CC6)cc(F)c5c4=O)c3CO)n2)cn1 fulfilled

Below 0.04 on fraction unbound, rat plasma? Entry CNC(=O)C1(Cc2ccc(-c3cccnc3)cc2)CCN(Cc2cccc(F)c2)C1 (stereo not given) fulfilled

Below 0.04 on fraction unbound, rat plasma? Entry CN(C)C(=O)C1(Cc2ccccc2-c2cccc(F)c2)CCN(C(=O)C2CC=CCC2)CC1 (stereo not given) fulfilled

Below 0.04 on fraction unbound, rat plasma? Entry O=C(NC1CCNCC1)c1ccc2[nH]ncc2c1 not fulfilled

* * *

# intrinsic clearance, rat liver microsomes per entry
The reply should contain only the number, in mL/min/kg.

# count of solved cases: 3
chem_smiles=CCCOc1c2c(nc3cc(C4CCOCC4)nn13)CCC2 unit_info=mL/min/kg measurement=16.1
chem_smiles=CCc1ncc2c(n1)CN(c1ccnc(-c3ccccc3)n1)CC2 unit_info=mL/min/kg measurement=259
chem_smiles=COc1cccc(O[C@H]2CCN(C(=O)c3cc(-c4ccc(C)cc4)on3)CC[C@@H]2O)c1 unit_info=mL/min/kg measurement=1060

Turning now to a further molecule:
What the record says about Cc1nnc(-c2ccccc2-c2ccc(O)cc2)s1 : intrinsic clearance, rat liver microsomes is 397

* * *

# MDR1-MDCK efflux ratio per entry

# count of solved cases: 4
compound=CCCC(=O)Nc1ccc(C)c2ncccc12 recorded_metric="MDR1-MDCK efflux ratio" measurement=0.743
compound=Cc1ncsc1CN1CCCN(c2nc3ccccc3[nH]2)CC1 recorded_metric="MDR1-MDCK efflux ratio" measurement=50.4
compound=O=C(CSc1ccccn1)N1CCSc2ccccc21 recorded_metric="MDR1-MDCK efflux ratio" measurement=0.586
compound=CC1CCN(C(=O)CCn2ccc3ccncc32)CC1 recorded_metric="MDR1-MDCK efflux ratio" measurement=1.98

What the record says about Cc1noc2ncc(C(=O)Nc3nc(C4CC4)cs3)cc12 : MDR1-MDCK efflux ratio is 0.511

What the record says about NC(=O)c1ccccc1NC(=O)CN1CCCC(c2nc3ccccc3o2)C1 (stereo unspecified) : MDR1-MDCK efflux ratio is 8

* * *

Sorting guide: entries reporting intrinsic clearance, rat liver microsomes beneath 200 mL/min/kg go in the t pile, the rest go in the f pile.

chem_smiles=c1ccc2c(c1)CCN(Cc1nnc3n1CCC3)C2 category_label=t
chem_smiles=Cc1ccc(-c2cnn3c(O)cc(Cn4cccn4)nc23)cc1 category_label=f
chem_smiles=O=C(NC1CCCC1)c1cc(C2CC2)nc2ccccc12 category_label=t

Below 200 mL/min/kg on intrinsic clearance, rat liver microsomes? Entry Cc1c(-c2c(F)cc(C(N)=O)c3[nH]c4c(c23)CC[C@H](C(C)(C)O)C4)cccc1-n1c(=O)c2cccc(F)c2n(C)c1=O t

Below 200 mL/min/kg on intrinsic clearance, rat liver microsomes? Entry CN1CCN(c2ncncc2-c2nc(-c3ccccc3)no2)CC1 f

Below 200 mL/min/kg on intrinsic clearance, rat liver microsomes? Entry C/C(=C/COc1c2occc2cc2ccc(=O)oc12)CO f

Below 200 mL/min/kg on intrinsic clearance, rat liver microsomes? Entry C#CCN1CCN(Cc2nc(O)cc(C(F)(F)F)n2)CC1 t

Below 200 mL/min/kg on intrinsic clearance, rat liver microsomes? Entry CNC(=O)c1cccc(NC(=O)N2CCC(Oc3ccccc3Cl)CC2)c1 f

* * *

Settings: pH 6.8
# aqueous solubility per entry
The reply should contain only the number, in µg/mL.

chem_smiles=CCCCNC(=O)c1cccc2ncccc12 recorded_metric="aqueous solubility" measurement=29.3

Turning now to a further molecule:
What the record says about CC(C)(C)c1noc(COc2ccccc2C#N)n1 : aqueous solubility is 40.8

* * *

# intrinsic clearance, human liver microsomes per entry
The reply should contain only the number, in mL/min/kg.

# count of solved cases: 3
chem_smiles=CC(C)CN(c1ncnc2c1cnn2C)C1CC1 measurement=50.5
chem_smiles=N#Cc1ccc(N2CCc3c(ncn3C3CC3)C2)nc1 measurement=13.4
chem_smiles=CCN(CC)C(=O)N1CCCN(C(=O)N(CC)CC)CC1 measurement=68.5

What the record says about Cc1nccc(-c2cccc(-n3ccnc3C(C)C)c2)n1 : intrinsic clearance, human liver microsomes is 35.4

What the record says about CN(C)CCN(Cc1ccccc1)C(=O)CCC(=O)Nc1ncc(-c2ccccc2)n1C : intrinsic clearance, human liver microsomes is 92

What the record says about CCc1ccccc1S(=O)(=O)NCCc1cn[nH]c1 : intrinsic clearance, human liver microsomes is 34.8

* * *

# intrinsic clearance, rat liver microsomes per entry
The reply should contain only the number, in mL/min/kg.

chem_smiles=COc1ccc(-c2nnc3ccc(C(F)(F)F)cn23)cc1OC(C)C measurement=132
chem_smiles=O=S(=O)(N1CCOCC1)N1CCN(Cc2ccccc2F)CC1 measurement=676
chem_smiles=Cc1cc2nc(CCC(=O)N3CCc4n[nH]cc4C3)[nH]c2cc1C measurement=190
chem_smiles=O=C(CCc1ccc2c(c1)OCO2)Nc1cccc2cnccc12 measurement=300
chem_smiles=Cc1ccc(-c2ccc(=O)n(Cc3ccncc3)n2)cc1 measurement=2400

What the record says about Cc1ccccc1S(=O)(=O)Nc1c(C)ccnc1Cl : intrinsic clearance, rat liver microsomes is 194

What the record says about Cc1nc(-c2ccccc2)nc(O)c1C : intrinsic clearance, rat liver microsomes is 54.3

* * *

Sorting guide: entries reporting MDR1-MDCK efflux ratio beneath 1 go in the True pile, the rest go in the False pile.

Consider the worked cases shown below.
molecule="NC1CCCC(C(=O)Nc2ccc3[nH]ncc3c2)C1 (centres undefined)" category_label=True
molecule=Cn1cc(-c2ccc3nnc(C(F)(F)c4ccc5ncccc5c4)n3n2)cn1 category_label=False
molecule=Cc1ccc(C(=O)Nc2ncccc2C)s1 category_label=True
molecule=O=C(Nc1cccnc1)c1ccnc(NC(=O)C2CC2)c1 category_label=False
molecule=CN(Cc1cccc(C#N)c1)Cc1cnn(C)c1 category_label=True
molecule=O=C(C1CC1)N1CC[C@@H](Cc2n[nH]c(=O)n2-c2ccc(-c3ccc4occc4c3)cc2)C1 category_label=False

Below 1 on MDR1-MDCK efflux ratio? Entry Cc1cnc(C(C)(C)NCC(=O)N(C)C)s1 False

Below 1 on MDR1-MDCK efflux ratio? Entry O=C(O)CCn1c2ccccc2c2ccccc21 True

Below 1 on MDR1-MDCK efflux ratio? Entry COc1cccc(-n2nc(C(=O)O)cc2-c2ccc(C3CCCCC3)c(Cl)c2)c1 False

Below 1 on MDR1-MDCK efflux ratio? Entry N#Cc1cc2c(nc1SCc1cccnc1)CCCCCC2 True

Below 1 on MDR1-MDCK efflux ratio? Entry Cc1c(F)cccc1NC(=O)CN1[C@H](Cc2ccccc2)C[C@]2(C)NC(=O)CCC[C@H]12 False

Below 1 on MDR1-MDCK efflux ratio? Entry CN(C)C(=O)c1ccnc(NCc2cccc(C#N)c2)c1 False

Below 1 on MDR1-MDCK efflux ratio? Entry CCOCCC(=O)N1CCC2(CCCN(C)CC2)CC1 False

* * *

# log10 aqueous solubility per entry
Conditions: pH 6.8
In our notation, the value equals log10 of aqueous solubility in µg/mL.

What the record says about COc1cc(OC)cc(-n2c(S)nnc2COc2cccc3ccccc23)c1 : log10 aqueous solubility is -0.55

What the record says about CCNC(=O)C1CN(c2cccc(C#N)n2)C1 : log10 aqueous solubility is 1.63

What the record says about CN(NC(=O)c1ccn(-c2ccccc2)n1)c1ccccc1 : log10 aqueous solubility is 1.76

What the record says about O=C1CCCN1c1ccc(CN2CCC(c3noc4cc(F)ccc34)CC2)cc1 : log10 aqueous solubility is 1.77

What the record says about c1nc(Nc2ccc3c(c2)OCCCO3)c2sccc2n1 : log10 aqueous solubility is 1.71

What the record says about Cc1ccc(S(=O)(=O)Nc2ccc3c(c2)c(C(=O)C(F)(F)F)cn3CC(=O)N[C@@H](CC(C)C)C(=O)O)cc1 : log10 aqueous solubility is 1.91

What the record says about Cc1ccc(-n2nc(C(C)(C)C)cc2NC(=O)NCc2cc(F)ccc2Oc2ccc3c(cnn3CCO)c2)cc1 : log10 aqueous solubility is -0.70

What the record says about O=C1NCC2(C/C=C/CCOc3ccccc31)CCN(C(=O)c1ccc3[nH]nnc3c1)CC2 : log10 aqueous solubility is 1.39

What the record says about Fc1cncc(-c2cnc(NCc3ccc(Cl)c(F)c3)nc2)c1 : log10 aqueous solubility is 0.51

What the record says about O=c1ncn2nc(Sc3ccc(F)cc3F)ccc2c1-c1c(Cl)cccc1Cl : log10 aqueous solubility is 1.11
